Each entry below carries its reported inhibition at 1.25 µg/mL.
Test system: HIV-1 RF
Test: Antiviral assay, Experimental Protocol I (compound added after infection)
Type: cell-based
Conditions: Human immunodeficiency virus 1, 240 h, 10% FCS, 1.25 μg/ml, p24 ELISA, read-out: % Inhibition (after day 10)
MEASUREMENT_KIND: inhibition at 1.25 µg/mL (%)

[[record]]
molecule = "COc1cc(N=Nc2c(O)ccc3ccc(S(=O)(=O)O)cc23)c(OC)cc1N=Nc1c(S(=O)(=O)O)cc2cc(S(=O)(=O)O)cc(NC(=O)c3cccc4ccccc34)c2c1O [Compound 38]"
meas_value = 99

[[record]]
molecule = "Cc1cc(N=Nc2c(S(=O)(=O)O)cc3cc(S(=O)(=O)O)cc(NC(=O)c4cccc(Cl)c4Cl)c3c2O)c(C)cc1N=Nc1c(S(=O)(=O)O)cc2cc(S(=O)(=O)O)cc(NC(=O)c3ccc(Cl)cc3Cl)c2c1O [Compound 31]"
meas_value = 0

[[record]]
molecule = "COc1cc(N=Nc2c(S(=O)(=O)O)cc3cc(S(=O)(=O)O)cc(NC(=O)c4cccc(Cl)c4Cl)c3c2O)c(OC)cc1N=Nc1c(S(=O)(=O)O)cc2cc(S(=O)(=O)O)cc(NC(=O)c3ccc(Cl)cc3Cl)c2c1O [Compound 6]"
meas_value = 100

[[record]]
molecule = "COc1cc(N=Nc2c(S(=O)(=O)O)cc3cc(S(=O)(=O)O)cc(NC(=O)c4cccc(Cl)c4Cl)c3c2O)c(OC)cc1N=Nc1c(S(=O)(=O)O)cc2cc(S(=O)(=O)O)cc(NC(=O)c3cccc(Cl)c3Cl)c2c1O [Compound 8]"
meas_value = 99

[[record]]
molecule = "CCC(C)(C)c1ccc(OCC(=O)Nc2cc(S(=O)(=O)O)cc3cc(S(=O)(=O)O)c(N=Nc4cc(OC)c(N=Nc5c(S(=O)(=O)O)cc6cc(S(=O)(=O)O)cc(NC(C)=O)c6c5O)cc4OC)c(O)c23)c(C(C)(C)CC)c1 [Compound 3]"
meas_value = 96


====

System: TA98, TA1535, TA1537, TA1538, TA100 and W2P2uvr
Experiment: Ames Test (in the presence of S9)
Type: cell-based, Salmonella typhimurium
Conditions: the higher the value, the higher the mutagenicity
Kind request: treat 0.08 colony no/μg as inclusive, so Ames Test, specific mutagenic activity at 0.08 colony no/μg or higher is true (1), anything lower is false (0).

[[record]]
compound = "Cc1cc(-c2ccc(/N=N/c3ccc4c(S(=O)(=O)O)cc(S(=O)(=O)O)c(N)c4c3O)c(C)c2)ccc1/N=N/c1ccc2c(S(=O)(=O)O)cc(S(=O)(=O)O)c(N)c2c1O [Evans Blue, reference compound]"
group_label = "true (1)"

[[record]]
compound = "COc1cc(N=Nc2c(S(=O)(=O)O)cc3cc(S(=O)(=O)O)cc(NC(=O)c4ccc(Cl)cc4Cl)c3c2O)c(OC)cc1N=Nc1c(S(=O)(=O)O)cc2cc(S(=O)(=O)O)cc(NC(=O)c3ccc(Cl)cc3Cl)c2c1O [Compound 11]"
group_label = "false (0)"

[[record]]
compound = "COc1cc(-c2ccc(/N=N/c3ccc4c(S(=O)(=O)O)cc(S(=O)(=O)O)c(N)c4c3O)c(OC)c2)ccc1/N=N/c1ccc2c(S(=O)(=O)O)cc(S(=O)(=O)O)c(N)c2c1O [CSB, Chicago Sky Blue, reference compound]"
group_label = "true (1)"

[[record]]
compound = "COc1cc(N=Nc2c(S(=O)(=O)O)cc3cc(S(=O)(=O)O)cc(NC(=O)c4cc(Cl)cc(Cl)c4)c3c2O)c(OC)cc1N=Nc1c(S(=O)(=O)O)cc2cc(S(=O)(=O)O)cc(NC(=O)Cc3ccccc3)c2c1O [Compound 14]"
group_label = "true (1)"

[[record]]
compound = "COc1cc(N=Nc2c(S(=O)(=O)O)cc3cc(S(=O)(=O)O)cc(NC(=O)c4cccc([N+](=O)[O-])c4)c3c2O)c(OC)cc1N=Nc1c(S(=O)(=O)O)cc2cc(S(=O)(=O)O)cc(NC(=O)c3ccccc3)c2c1O [Compound 22]"
group_label = "true (1)"

[[record]]
compound = "COc1cc(N=Nc2c(S(=O)(=O)O)cc3cc(S(=O)(=O)O)cc(NC(=O)Nc4cccc5ccccc45)c3c2O)c(OC)cc1N=Nc1c(S(=O)(=O)O)cc2cc(S(=O)(=O)O)cc(NC(C)=O)c2c1O [Compound 16]"
group_label = "false (0)"


====

Experiment: LD50, intravenous, mice
Type: in vivo
Details: mouse, in vivo, female mice, mortalities within 1 week
MEASUREMENT_KIND: LD50 at 168 h (mg/kg)

[[record]]
mol_smiles = "COc1cc(N=Nc2c(S(=O)(=O)O)cc3cc(S(=O)(=O)O)cc(NC(=O)c4ccc(Cl)c(Cl)c4)c3c2O)c(OC)cc1N=Nc1c(S(=O)(=O)O)cc2cc(S(=O)(=O)O)cc(NC(=O)c3ccc(Cl)c(Cl)c3)c2c1O"
measurement_kind = "LD50 at 168 h"
meas_value = 140

[[record]]
mol_smiles = "COc1cc(N=Nc2c(S(=O)(=O)O)cc3cc(S(=O)(=O)O)cc(NC(=O)c4ccccc4)c3c2O)c(OC)cc1N=Nc1c(S(=O)(=O)O)cc2cc(S(=O)(=O)O)cc(NC(=O)Nc3ccc(F)cc3)c2c1O"
measurement_kind = "LD50 at 168 h"
meas_value = 140

[[record]]
mol_smiles = "COc1cc(N=Nc2c(S(=O)(=O)O)cc3cc(S(=O)(=O)O)cc(NC(=O)c4cccc([N+](=O)[O-])c4)c3c2O)c(OC)cc1N=Nc1c(S(=O)(=O)O)cc2cc(S(=O)(=O)O)cc(NC(=O)c3ccccc3)c2c1O"
measurement_kind = "LD50 at 168 h"
meas_value = 140

[[record]]
mol_smiles = "COc1cc(N=Nc2c(S(=O)(=O)O)cc3cc(S(=O)(=O)O)cc(NC(=O)c4cccc(Cl)c4Cl)c3c2O)c(OC)cc1N=Nc1c(S(=O)(=O)O)cc2cc(S(=O)(=O)O)cc(NC(=O)c3cc(Cl)ccc3Cl)c2c1O"
measurement_kind = "LD50 at 168 h"
meas_value = 150


====

Biological target: recombinant reverse transcriptase (RT) (Human immunodeficiency virus type 1 group M subtype B)
Construct: purchased Worthington Biochemical Corporation
Test: Reverse transcriptase inhibition assay
Assay type: biochemical, HIV-1
Conditions: at 0.5 μM
# if value of inhibition at 0.5 µM reaches 40%, tag rule met; if it stays below, tag rule not met

[[record]]
compound = "Cc1cc(-c2ccc(/N=N/c3ccc4c(S(=O)(=O)O)cc(S(=O)(=O)O)c(N)c4c3O)c(C)c2)ccc1/N=N/c1ccc2c(S(=O)(=O)O)cc(S(=O)(=O)O)c(N)c2c1O [Evans Blue, reference compound]"
group_label = "rule met"

[[record]]
compound = "COc1cc(N=Nc2c(S(=O)(=O)O)cc3cc(S(=O)(=O)O)cc(NC(=O)c4cccc5ccccc45)c3c2O)c(OC)cc1N=Nc1c(S(=O)(=O)O)cc2cc(S(=O)(=O)O)cc(NC(=O)c3ccc(Cl)cc3Cl)c2c1O"
group_label = "rule met"

[[record]]
compound = "Cc1ccc(C(=O)Nc2ccc(S(=O)(=O)O)c3cc(S(=O)(=O)O)cc(S(=O)(=O)O)c23)cc1NC(=O)c1cccc(NC(=O)Nc2cccc(C(=O)Nc3cc(C(=O)Nc4ccc(S(=O)(=O)O)c5cc(S(=O)(=O)O)cc(S(=O)(=O)O)c45)ccc3C)c2)c1 [Suramin, reference compound]"
group_label = "rule met"

[[record]]
compound = "COc1cc(N=Nc2c(S(=O)(=O)O)cc3cc(S(=O)(=O)O)cc(NC(=O)c4cccc(Cl)c4Cl)c3c2O)c(OC)cc1N=Nc1c(S(=O)(=O)O)cc2cc(S(=O)(=O)O)cc(NC(=O)c3ccc(Cl)cc3Cl)c2c1O"
group_label = "rule not met"

[[record]]
compound = "COc1cc(N=Nc2c(S(=O)(=O)O)cc3cc(S(=O)(=O)O)cc(NC(=O)c4ccc(Cl)cc4Cl)c3c2O)c(OC)cc1N=Nc1c(S(=O)(=O)O)cc2cc(S(=O)(=O)O)cc(NC(=O)c3ccc(Cl)cc3Cl)c2c1O"
group_label = "rule not met"

[[record]]
compound = "CCC(C)(C)c1ccc(OCC(=O)Nc2cc(S(=O)(=O)O)cc3cc(S(=O)(=O)O)c(N=Nc4cc(OC)c(N=Nc5c(S(=O)(=O)O)cc6cc(S(=O)(=O)O)cc(NC(C)=O)c6c5O)cc4OC)c(O)c23)c(C(C)(C)CC)c1"
group_label = "rule met"

[[record]]
compound = "COc1cc(N=Nc2c(S(=O)(=O)O)cc3cc(S(=O)(=O)O)cc(NC(=O)c4ccc(Cl)c(Cl)c4)c3c2O)c(OC)cc1N=Nc1c(S(=O)(=O)O)cc2cc(S(=O)(=O)O)cc(NC(=O)c3ccc(Cl)c(Cl)c3)c2c1O"
group_label = "rule met"

